System: SR leukemia
measurement protocol: NCI-60 one-dose screen, 48 h (100 = growth as untreated, 0 = no growth, -100 = all killed)
condition set: 10 µM unless noted
Method: Growth inhibition of the SR human tumor cell line is measured as a screen for anti-cancer activity. Cells are grown in 96 well plates and exposed to the test compound for 48 hours. Compounds are tested at a single concentration, which is 10^-5 M for most compounds. The reported endpoint is percent growth (GI% or GIPRCNT), where numbers from 0 - 100% represent growth inhibition, and numbers from -100% - 0 represent cell death. For example, a value of 40 represents 60% growth inhibition. […]
This is part of a sample that, as a whole, favours compounds with a hit. Of some 83,000 tested, about 20% had one in any assay.
readout label: growth (%)
Numbers only, in %.

Consider the worked cases shown below.
molecule	readout label	observed result
Cc1cc(=NO)cc(C)n1O	growth	72.5
CC(=O)Nc1ccc(OC(C)=O)cc1	growth	115
Nc1ccc2ccc(NS(=O)(=O)N3CCCCC3)cc2c1	growth	6.48
O=C(NC(=O)c1ccc(F)c(Cl)c1)NC1CC1	growth	91.4

Quick batch: growth for everything below.
1. Nc1ccccc1SC1CC(=O)N(c2ccc(I)cc2)C1=O (centres undefined)
2. O=[N+]([O-])c1ccc(NC(c2ccccc2)c2ccc3cccnc3c2O)cc1 (centres undefined)

1. 68.6
2. 6.12

Items follow; give growth for each.
1. Cc1cc2nc3ccc(=[N+](C)C)cc-3sc2cc1N
2. CC1(CO)CCCC1NCCNC1CCCC1(C)CO (centres undefined)
3. O=[N+]([O-])c1cccc2ccc(N/N=C/c3ccccc3O)nc12
4. OCc1ccccc1F

[-4.11, 95.9, 60.4, 92.6]

I need growth for every entry listed below, if you could help.
1. COCCNC(C)=O
2. O=COCCCc1ccccc1
3. CSc1nc(N)c(N)c(N)n1
4. CCOP(C)(=O)/C(Cc1ccc(OC)c(OC)c1)=N\O (centres undefined)

1. 118
2. 117
3. 90.8
4. 105
